B1: TPR t1 (parent)
chain: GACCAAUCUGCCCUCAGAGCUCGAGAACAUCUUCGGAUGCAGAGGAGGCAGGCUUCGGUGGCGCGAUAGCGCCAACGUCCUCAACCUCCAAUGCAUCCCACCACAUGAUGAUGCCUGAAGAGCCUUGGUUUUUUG

# Variants of: B1
# run description: polymerase ribozyme fitness, log enrichment relative to wild type (log ratio); higher = more active; in vitro selection for triplet polymerase activity
If the reported polymerase ribozyme fitness (log ratio) equals or exceeds -4, assign condition met. If not, assign condition not met.

The following variants have reported results that may help.
Query :: // inclusive: polymerase ribozyme fitness (log ratio) at least -4? input: C12U C13U C97A C123U C124A
Result :: condition met

Query :: Given A2G C12G G17A U54C C88U A91U C101U A105U C114G , state whether its polymerase ribozyme fitness (log ratio) is at least -4.
Result :: condition not met

Query :: hey, is polymerase ribozyme fitness (log ratio) for this one >= -4? A18C G44A G61U C85G A121U
Result :: condition met

Query :: Can C22G A83C be said to have polymerase ribozyme fitness (log ratio) at or above -4?
Result :: condition met

Query :: Determine whether measured polymerase ribozyme fitness (log ratio) meets or exceeds -4 for A27U G39C
Result :: condition met

New cases:
Query :: Form field: polymerase ribozyme fitness (log ratio) at least -4? Entry: C13G G60C
Result :: condition met

Query :: Textbook exercise: given the entry U106G G117C , state whether its polymerase ribozyme fitness (log ratio) is greater than or equal to -4.
Result :: condition met

Query :: Can G122U C124G U130A be said to have polymerase ribozyme fitness (log ratio) at or above -4?
Result :: condition met

Query :: Determine whether this variant has polymerase ribozyme fitness (log ratio) no lower than -4: C62A C101A
Result :: condition met

Query :: Hi team, for C8U G39C , is the recorded polymerase ribozyme fitness (log ratio) at or above -4?
Result :: condition met

FYI, the data here is from the RNAGym collection of RNA variant scans (doi:10.1073/pnas.2313332121).
